Origin of measurements: the antibiotic and cytotoxicity screens of Wong et al. (2023)

test system: HSkMC; assay: cytotoxicity call (relative viability < 0.9); details: 10 µM
The campaign covered roughly 39,000 compounds. About 1,500 (3.8%) were called active. The entries come from a sample that favours actives as a whole.
Respond with a class label; see yes (1) (active), no (0) (inactive)

Ask: Test call, this molecule: "C[C@@H]1CN([C@H](C)CO)C(=O)c2cc(NC(=O)Nc3ccc(C(F)(F)F)cc3)ccc2O[C@@H](C)CCCCO[C@H]1CN(C)Cc1ccccc1"
Reply: yes (1)

Ask: Test call, this molecule: "C[C@H](CO)N1C[C@H](C)[C@H](CN(C)Cc2ccc(-c3ccccc3)cc2)Oc2ccc(NC(=O)C3CCCCC3)cc2CC1=O"
Reply: no (0)

Ask: Test call, this molecule: "C[C@H](CO)N1C[C@H](C)[C@@H](CN(C)Cc2ccccc2)OCCCC[C@H](C)Oc2ccc(NC(=O)Nc3ccc(C(F)(F)F)cc3)cc2C1=O"
Reply: yes (1)

* * *

tested on: HSkMC (human skeletal muscle cells); test: cytotoxicity call (relative viability < 0.9); details: 10 µM
Out of some 39,000 compounds screened, about 1,500 (3.8%) were called active. The sample holds actives, similar compounds and a random draw of the others, so the mix is not that of the screen.
Respond with a class label; see active, inactive

Ask: Test call, this compound: "CN(C)Cc1cn(CC[C@@H]2CC[C@H](NC(=O)Cc3cccnc3)[C@H](CO)O2)nn1"
Reply: inactive

Ask: Test call, this compound: "O=C(NCc1csnn1)c1csnn1"
Reply: inactive

Ask: Test call, this compound: "C[C@H]1CN([C@@H](C)CO)C(=O)c2cc(NC(=O)Cc3ccccc3)ccc2O[C@H]1CN(C)Cc1ccc(C(F)(F)F)cc1"
Reply: inactive

Ask: Test call, this compound: "Cc1ccc(S(=O)(=O)Nc2ccc3c(c2)C(=O)N([C@H](C)CO)C[C@@H](C)[C@H](CN(C)S(=O)(=O)c2ccc(Cl)cc2)OCCCC[C@@H](C)O3)cc1"
Reply: inactive

Ask: Test call, this compound: "CN1CCN(C(=O)C[C@H]2C=C[C@@H](NC(=O)Cc3ccccn3)[C@H](CO)O2)CC1"
Reply: inactive

Ask: Test call, this compound: "C[C@@H]1CN([C@@H](C)CO)C(=O)c2cccc(NC(=O)C3CC3)c2O[C@@H]1CN(C)Cc1ccc(C(=O)O)cc1"
Reply: inactive

Ask: Test call, this compound: "O=C(C[C@@H]1CC[C@H]2[C@@H](COC[C@@H](O)CN2C(=O)c2ccc3c(c2)OCO3)O1)NCCN1CCCCC1"
Reply: inactive

Ask: Test call, this compound: "CN1C(=O)c2cc(NC(=O)C3CCOCC3)ccc2OC[C@@H]2O[C@@H](CC(=O)NCc3ccccc3F)CC[C@@H]21"
Reply: inactive

Ask: Test call, this compound: "C[C@@H]1CCCCO[C@@H](CN(C)C(=O)c2ccccc2)[C@@H](C)CN([C@@H](C)CO)C(=O)c2cc(NC(=O)Nc3ccccc3)ccc2O1"
Reply: inactive

Ask: Test call, this compound: "O=C(C[C@@H]1CC[C@H]2[C@@H](COC[C@@H](O)CN2S(=O)(=O)c2cccc(Cl)c2)O1)NCCCN1CCOCC1"
Reply: inactive

Ask: Test call, this compound: "C[C@@H]1CN([C@@H](C)CO)C(=O)c2cc(NC(=O)Nc3ccc(C(F)(F)F)cc3)ccc2O[C@H]1CN(C)Cc1ccc2c(c1)OCO2"
Reply: active

Ask: Test call, this compound: "COCCNC(=O)C[C@H]1CC[C@H]2[C@@H](COc3ccc(NC(=O)Nc4cccc(F)c4)cc3C(=O)N2C)O1"
Reply: inactive

Ask: Test call, this compound: "CC(C)(C)[S@](=O)N1Cc2cc(C(=O)NCc3ccncc3)nc(-c3cccc(-c4cccc(C#N)c4)c3)c2[C@@H]1CCO"
Reply: inactive

Ask: Test call, this compound: "C[C@H]1CN([C@@H](C)CO)C(=O)c2cc(NC(=O)Nc3ccc(C(F)(F)F)cc3)ccc2O[C@H]1CN(C)Cc1ccc2c(c1)OCO2"
Reply: inactive

Ask: Test call, this compound: "C[C@@H]1CN([C@H](C)CO)C(=O)c2cc(NC(=O)Nc3ccc(C(F)(F)F)cc3)ccc2O[C@H]1CN(C)Cc1ccc2c(c1)OCO2"
Reply: inactive
